Target: T1, CD123 (Homo sapiens (Human), UniProt P26951 19-305, limits assumed)
T1 construct: The CD123 construct used in the ELISA is not described; also called CD123-Signal
T1 sequence: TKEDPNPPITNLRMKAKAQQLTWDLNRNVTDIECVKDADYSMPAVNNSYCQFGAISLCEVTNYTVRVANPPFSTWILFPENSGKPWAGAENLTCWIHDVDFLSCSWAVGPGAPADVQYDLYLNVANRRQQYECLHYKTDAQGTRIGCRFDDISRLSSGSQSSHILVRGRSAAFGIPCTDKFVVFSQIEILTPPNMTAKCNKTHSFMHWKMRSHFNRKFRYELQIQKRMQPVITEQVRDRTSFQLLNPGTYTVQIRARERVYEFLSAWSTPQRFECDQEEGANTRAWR
Experiment: ELISA
Parameters: unit not given here
We use 4 as the dividing line for ELISA_avg: on or above the line is y, below is n.

D domain of SEQ ID NO: 594 (designed binder) MGSWNEFLLRLDAIEHRLFALGGSEAELAEFEWEIADFEDDLQWYKGKGNPEVEALVEEAEAIDVELVAYRHN | n
D domain of SEQ ID NO: 417 (designed binder) MGSWDEFEERLFAIDERLWALGGSEAELAAFEKEIAAFESELQAYKGKGNPEVEALRYLAADIREELQAYRHN | y

Has D domain of SEQ ID NO: 433 (designed binder) MGSWFEFWGRLEAIESRLKALGGSEAELAAFEKEIAAFESELQAYKGKGNPEVEELREHAAWIRAYLQAYRHN a recorded ELISA_avg greater than or equal to 4?
y

Has D domain of SEQ ID NO: 584 (designed binder) MGSWMEFDYRLEAIWMRLIALGGSEAELADFESSIADFEHHLQSYKGKGNPEVEALEWEAFAIGVELDAYRHN a recorded ELISA_avg greater than or equal to 4?
n
